- tested.on: α-syn fibrils (Homo sapiens)
- Construct: made in house; host or cells: Escherichia coli BL21(DE3)
- method: Inhibition of thioflavin T binding to α-syn fibrils (fluorescence competition), Ki determination
- run.parameters: calculated from IC50, competition with ThT 500 nM, fibrils 200 nM, mean ± SD of 3 experiments
Hi there, I'd appreciate the recorded pKi for every entry that follows.
Answers are plain numbers, as −log10 of the molar value.

Please review the following examples before continuing.
line.notation: CN(C)c1ccc(C#Cc2cc3ccncc3[nH]2)cc1
tested.on: α-syn fibrils (Homo sapiens)
observed.value: 7.54

line.notation: CN(C)c1ccc(C#Cc2cc3ncccc3[nH]2)cc1
tested.on: α-syn fibrils (Homo sapiens)
observed.value: 7.59

Query :: I'd like to know its pKi. The compound in question is CN(C)c1ccc(C#Cc2cc3cccnc3[nH]2)cc1
Result :: 8.33

###

- tested.on: α-syn fibrils (Homo sapiens, UniProt P37840)
- Construct: made in house; host or cells: Escherichia coli BL21(DE3)
- method: Inhibition of thioflavin T binding to α-syn fibrils (fluorescence competition), Ki determination
Provide the recorded pKi for the entries that follow.
One number for each entry, as −log10 of the molar value.

Example entries and their recorded answers appear below.
line.notation: COc1ccc(C#Cc2cc3ccccc3[nH]2)cc1
tested.on: α-syn fibrils (Homo sapiens, UniProt P37840)
pKi: 7.01
--
line.notation: COc1ccc2[nH]c(C#Cc3ccc(N(C)C)cc3)cc2c1
tested.on: α-syn fibrils (Homo sapiens, UniProt P37840)
pKi: 7.66
--
line.notation: CNc1ccc(C#Cc2cc3ccccc3[nH]2)cc1
tested.on: α-syn fibrils (Homo sapiens, UniProt P37840)
pKi: 7.32
--
line.notation: CCc1ccc(C#Cc2cc3ccccc3[nH]2)cc1
tested.on: α-syn fibrils (Homo sapiens, UniProt P37840)
pKi: 7.44

# map each molecule to its pKi
1. CN(C)c1ccc(C#Cc2cc3ccccc3[nH]2)cc1
2. CN(C)c1ccc(C#Cc2cc3cnccc3[nH]2)cc1
3. Nc1ccc(C#Cc2cc3ccccc3[nH]2)cc1

Result ::
1: 7.44; 2: 7.59; 3: 7.39

###

- tested.on: Tau fibrils (isoform h2N4RTau) (Homo sapiens)
- Construct: made in house; host or cells: Escherichia coli BL21(DE3), pET11d vector
- method: Inhibition of thioflavin T binding to Tau fibrils (fluorescence competition), Ki determination
- run.parameters: calculated from IC50, competition with ThT 500 nM, fibrils 200 nM, mean ± SD of 3 experiments
Hi there, I'd appreciate the recorded log10 of Ki for every entry that follows.
Transform log10 | Measure Ki | Unit nM

See these solved cases before continuing.
line.notation: COc1ccc(C#Cc2cc3ccccc3[nH]2)cc1
measure.name: log10 of Ki
observed.value: 1.52
--
line.notation: CN(C)c1ccc(C#Cc2cc3ccncc3[nH]2)cc1
measure.name: log10 of Ki
observed.value: 0.92
--
line.notation: COc1ccc2[nH]c(C#Cc3ccc(N(C)C)cc3)cc2c1
measure.name: log10 of Ki
observed.value: 1.10
--
line.notation: CN(C)c1ccc(C#Cc2cc3cccnc3[nH]2)cc1
measure.name: log10 of Ki
observed.value: 0.66
--
line.notation: Nc1ccc(C#Cc2cc3ccccc3[nH]2)cc1
measure.name: log10 of Ki
observed.value: 2.09

Hey, quick one: what's log10 of Ki for each of these?
1. Nc1cccc(C#Cc2cc3ccccc3[nH]2)c1
2. CNc1ccc(C#Cc2cc3ccccc3[nH]2)cc1
3. C(#Cc1cc2ccccc2[nH]1)c1ccccc1
4. CN(C)c1ccc(C#Cc2cc3cc(OCCF)ccc3[nH]2)cc1
5. CN(C)c1ccc(C#Cc2cc3ncccc3[nH]2)cc1
6. CCc1ccc(C#Cc2cc3ccccc3[nH]2)cc1
7. CN(C)c1ccc(C#Cc2cc3ccccc3[nH]2)cc1
8. Cc1ccc(C#Cc2cc3ccccc3[nH]2)cc1

Result ::
[0.86, 1.24, 1.29, 1.20, 1.08, 1.52, 1.44, 1.12]

###

- tested.on: Tau fibrils (isoform h2N4RTau) (Homo sapiens, UniProt P10636)
- Sequence (P10636 1-441 isoform P10636-8): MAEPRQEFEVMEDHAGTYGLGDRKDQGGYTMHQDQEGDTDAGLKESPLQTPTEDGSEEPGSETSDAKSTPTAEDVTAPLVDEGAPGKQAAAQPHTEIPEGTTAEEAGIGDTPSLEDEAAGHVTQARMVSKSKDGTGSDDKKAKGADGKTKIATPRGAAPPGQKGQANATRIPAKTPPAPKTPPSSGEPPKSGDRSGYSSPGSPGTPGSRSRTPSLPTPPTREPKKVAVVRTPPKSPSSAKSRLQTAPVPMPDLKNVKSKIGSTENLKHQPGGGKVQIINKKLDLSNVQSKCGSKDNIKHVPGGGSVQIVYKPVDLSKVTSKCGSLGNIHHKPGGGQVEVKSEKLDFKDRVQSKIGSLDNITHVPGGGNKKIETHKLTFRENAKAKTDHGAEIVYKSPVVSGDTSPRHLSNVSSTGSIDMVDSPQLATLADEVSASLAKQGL
- method: Direct fluorescence titration on Tau fibrils: Kd and Bmax
- run.parameters: direct assay on fibrils, mean ± SD of 3 experiments
- From the text: In view of the interesting properties of compounds 33–39, we decided to switch to azaindole structures and to study the impact of the position of the nitrogen atom in the 6-membered ring on binding to fibrils. At this step we measured, in addition to the Ki values, the direct binding of each compound to fibrils through the fluorescence in the fraction bound to fibrils, which allowed us to determine the affinity values (Kd, Table 1). […]
pKd: −log10 of the molar value.
Use 9 as the dividing line for pKd, with the line itself on the yes (1) side and lower values as no (0).

line.notation: CN(C)c1ccc(C#Cc2cc3cnccc3[nH]2)cc1
assigned.class: no (0)

line.notation: CN(C)c1ccc(C#Cc2cc3ncccc3[nH]2)cc1
assigned.class: yes (1)

line.notation: CN(C)c1ccc(C#Cc2cc3ccncc3[nH]2)cc1
assigned.class: yes (1)

We now examine a further compound.
Query :: Is the recorded value of pKd equal to or greater than 9 for this compound? CN(C)c1ccc(C#Cc2cc3cccnc3[nH]2)cc1
Result :: yes (1)

###

For each entry below, report its pKd value.
- tested.on: α-syn fibrils (Homo sapiens, UniProt P37840)
- Construct: made in house; host or cells: Escherichia coli BL21(DE3)
- method: Direct fluorescence titration on α-syn fibrils: Kd and Bmax
- Type: binding
- run.parameters: direct assay on fibrils, mean ± SD of 3 experiments
Answers are plain numbers, as −log10 of the molar value.

Examples from the recorded data:
line.notation: CN(CCF)c1ccc(C#Cc2cc3cccnc3[nH]2)cc1
observed.value: 8.62

line.notation: CN(C)c1ccc(C#Cc2cc3cccnc3[nH]2)cc1
observed.value: 9.28

line.notation: CN(C)c1ccc(C#Cc2cc3ccncc3[nH]2)cc1
observed.value: 8.85

Give me pKd for each of these molecules, listed below.
1. CN(C)c1ccc(C#Cc2cc3cnccc3[nH]2)cc1
2. CN(C)c1ccc(C#Cc2cc3ncccc3[nH]2)cc1

Result ::
9.00
8.49

###

- tested.on: Aβ1-42 fibrils (Homo sapiens)
- Construct: Wild-type α-syn and Aβ1-42 were expressed
- Sequence (P05067 672-713): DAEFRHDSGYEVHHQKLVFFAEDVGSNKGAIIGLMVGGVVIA
- method: Inhibition of thioflavin T binding to Aβ1-42 fibrils (fluorescence competition), Ki determination
- run.parameters: calculated from IC50, competition with ThT 500 nM, fibrils 500 nM, mean ± SD of 3 experiments; read-out: Ki Aβ
What pKi was measured for each of the following?
Numbers only, as −log10 of the molar value.

The examples below pair each entry with its known result.
line.notation: Nc1ccc(C#Cc2cc3ccccc3[nH]2)cc1
observed.value: 7.58
//
line.notation: CN(C)c1ccc(C#Cc2cc3ccncc3[nH]2)cc1
observed.value: 7.04

Proceeding to the next molecule to report its pKi.
Query :: # get_value(readout='pKi', item= CNc1ccc(C#Cc2cc3ccccc3[nH]2)cc1 )
Result :: 8.18

###

Record form. Attribute: Kd. Fill in for each entry.
- tested.on: Aβ1-42 fibrils (Homo sapiens)
- Construct: Wild-type α-syn and Aβ1-42 were expressed
- method: Direct fluorescence titration on Aβ1-42 fibrils: Kd and Bmax
- run.parameters: direct assay on fibrils, mean ± SD of 3 experiments; read-out: Kd Aβ
Answers are plain numbers, in nM.

line.notation: CN(C)c1ccc(C#Cc2cc3cccnc3[nH]2)cc1
uom: nM
Kd: 11.8

line.notation: CN(CCF)c1ccc(C#Cc2cc3cccnc3[nH]2)cc1
uom: nM
Kd: 1.2

line.notation: CN(C)c1ccc(C#Cc2cc3ncccc3[nH]2)cc1
uom: nM
Kd: 2.9

Could you tell me Kd for each of these molecules? They are listed below.
1. CN(C)c1ccc(C#Cc2cc3cnccc3[nH]2)cc1
2. CN(C)c1ccc(C#Cc2cc3ccncc3[nH]2)cc1

Result ::
1. 3.6
2. 5.2

###

- tested.on: Aβ1-42 fibrils (Homo sapiens)
- Construct: Wild-type α-syn and Aβ1-42 were expressed
- method: Inhibition of thioflavin T binding to Aβ1-42 fibrils (fluorescence competition), Ki determination
- run.parameters: calculated from IC50, competition with ThT 500 nM, fibrils 500 nM, mean ± SD of 3 experiments; read-out: Ki Aβ
- Experimental: Wild-type α-syn and Aβ1-42 were expressed in the Escherichia coli strain BL21(DE3) (Stratagene, La Jolla, CA, USA) and purified as described. […] For the Aβ1-42 peptide, the concentration was determined by a fluorometric method using the reactive compound fluorescamine (Sigma, San Jose, CA, USA) that reacts with primary amino groups to form a fluorescent product. […]
Could you please report measured Ki for the items listed next?
Give bare numbers, in nM.

Sample answers from the record:
line.notation: Cc1ccc(C#Cc2cc3ccccc3[nH]2)cc1
measure.name: Ki
uom: nM
observed.value: 37.9
--
line.notation: CN(C)c1ccc(C#Cc2cc3ccccc3[nH]2)cc1
measure.name: Ki
uom: nM
observed.value: 64.4

Query :: Request body: readout Ki, system Aβ1-42 fibrils (Homo sapiens), query COc1ccc(C#Cc2cc3ccccc3[nH]2)cc1 . Return the value.
Result :: 68.9
